# experimental target: Histone deacetylase
# measurement notes: Inhibition of HDAC in HeLa cell lysates
# Assay type: protein assay, Homo sapiens
Hi there, I'd appreciate the recorded log10 IC50 for every entry that follows.
Please interpret these as log10 of IC50 where IC50 is in nM.

Form field log10 IC50 for item CC(=O)Nc1ccc(CN2CCC=C(CCC(=O)NO)C2=O)cc1 on Histone deacetylase: 2.91

Measured log10 IC50 (Histone deacetylase), entry O=C(CCC1=CCCN(CCCc2ccc(-c3ccccc3)cc2)C1=O)NO : 2.43

Fill in: Histone deacetylase log10 IC50 for COc1cccc(CN2CCC=C(CCC(=O)NO)C2=O)c1 = 3.29

Measured log10 IC50 for this entry COc1ccc(CN2CCC=C(CCC(=O)NO)C2=O)cc1 on Histone deacetylase: 2.64

Short answer on Histone deacetylase for O=C(CCC1=CCCN(CCCc2ccc3ccccc3c2)C1=O)NO , log10 IC50: 1.48

Item O=C(CCC1=CCCN(Cc2ccc(F)cc2)C1=O)NO ; assay system Histone deacetylase; log10 IC50 reported as 2.75

Kindly note: Histone deacetylase, COc1ccccc1CN1CCC=C(CCC(=O)NO)C1=O , log10 IC50 value reported: 2.93

Response field log10 IC50 (Histone deacetylase) for item O=C(CCC1=CCCN(CCc2ccc3ccccc3c2)C1=O)NO : 1.57

Reported Histone deacetylase log10 IC50 for item O=C(CCC1=CCCN(Cc2ccc(Br)cc2)C1=O)NO was 2.65

Query O=C(CCC1=CCCN(Cc2ccc([N+](=O)[O-])cc2)C1=O)NO on Histone deacetylase; log10 IC50 returned: 2.36

Short answer on Histone deacetylase for O=C(CCC1=CCCN(Cc2ccc(NC(=O)c3ccccc3)cc2)C1=O)NO , log10 IC50: 2.71

Entry O=C(CCC1=CCCN(CCCCc2ccc(-c3ccccc3)cc2)C1=O)NO ; assay system Histone deacetylase; log10 IC50 recorded at 2.30

Entry Cc1cccc(CN2CCC=C(CCC(=O)NO)C2=O)c1 , tested on Histone deacetylase, has a reported log10 IC50 of 3.28

###

So I've got a bunch of molecules here, and I need their GI50 values.
# Tested on: NUGC-3
# measurement notes: Growth inhibition of human NUGC3 cells by SRB assay
# Type: functional
Number only, in nM; omit the unit.

Data point: O=C(CCC1=CCCN(CCCc2ccc(-c3ccccc3)cc2)C1=O)NO ; GI50 = 3700

O=C(CCC1=CCCN(CCc2cccc3ccccc23)C1=O)NO has a reported GI50 of 3260

The reported value for O=C(CCC1=CCCN(CCc2ccc3ccccc3c2)C1=O)NO in terms of GI50 is 370

// GI50 value for O=C(CCC1=CCCN(CCc2ccc(-c3ccccc3)cc2)C1=O)NO : 1650

Record summary for O=C(CCC1=CCCN(CCCc2ccc3ccccc3c2)C1=O)NO : reported GI50 = 790

GI50 recorded for this molecule, O=C(CCC1=CCCN(CCCCc2cccc3ccccc23)C1=O)NO , is 2010

// GI50 value for O=C(CCC1=CCCN(Cc2ccc([N+](=O)[O-])cc2)C1=O)NO : 1110

// recorded GI50 for O=C(CCC1=CCCN(CCCCc2ccc(-c3ccccc3)cc2)C1=O)NO : 4200

###

# System: MDA-MB-231
# measurement notes: Growth inhibition of human MDA-MB-231 cells by SRB assay
# Type: functional
What GI50 was measured for each of the following?
Only the number, expressed in nM, is required.

Let me check: O=C(CCC1=CCCN(CCCc2ccc(-c3ccccc3)cc2)C1=O)NO , system MDA-MB-231, measured GI50 is 1040

Test item O=C(CCC1=CCCN(Cc2ccc([N+](=O)[O-])cc2)C1=O)NO ; MDA-MB-231; reported GI50 was 470

Measured GI50 for this entry O=C(CCC1=CCCN(CCCc2ccc3ccccc3c2)C1=O)NO on MDA-MB-231: 560

// GI50 (MDA-MB-231) for O=C(CCC1=CCCN(CCc2ccc3ccccc3c2)C1=O)NO = 280

Form field GI50 for item Cc1ccc(CN2CCC=C(CCC(=O)NO)C2=O)cc1 on MDA-MB-231: 1430

Summary: O=C(CCC1=CCCN(Cc2ccc(Br)cc2)C1=O)NO , MDA-MB-231, GI50 = 1630

###

# System: ACHN
# measurement notes: Growth inhibition of human ACHN cells by SRB assay
# Assay type: functional
// classify: if (GI50 < 3000 nM) T else F

Please determine if O=C(CCCCCCC(=O)Nc1ccccc1)NO is below 3000 nM in terms of GI50.
T

State whether 3000 nM exceeds GI50 recorded for COc1cccc(CN2CCC=C(CCC(=O)NO)C2=O)c1 .
F

# check: GI50 < 3000 nM for O=C(CCC1=CCCN(Cc2ccc(NC(=O)c3ccccc3)cc2)C1=O)NO
F

Regarding O=C(CCC1=CCCN(CCc2cccc3ccccc23)C1=O)NO , kindly confirm whether its GI50 is beneath 3000 nM.
F

Identify whether the compound O=C(CCC1=CCCN(CCCCc2ccc(-c3ccccc3)cc2)C1=O)NO records GI50 below 3000 nM.
T

GI50 under 3000 nM? Item: O=C(CCC1=CCCN(CCc2ccc(-c3ccccc3)cc2)C1=O)NO
T

# TODO verify GI50 < 3000 nM strictly for this compound: Cc1ccc(S(=O)(=O)Nc2ccc(CN3CCC=C(CCC(=O)NO)C3=O)cc2)cc1
T

Bench note: check whether Cc1ccc(CN2CCC=C(CCC(=O)NO)C2=O)cc1 shows GI50 below 3000 nM
F

GI50 under 3000 nM? Item: COc1ccc(CN2CCC=C(CCC(=O)NO)C2=O)cc1
T

Given Cc1cccc(CN2CCC=C(CCC(=O)NO)C2=O)c1 , is recorded GI50 strictly lower than 3000 nM?
F

Is it true that GI50 reported for O=C(CCC1=CCCN(CCCc2ccc(-c3ccccc3)cc2)C1=O)NO is less than 3000 nM?
T

###

# experimental target: Histone deacetylase
# measurement notes: Inhibition of HDAC in HeLa cell lysates
# Format: protein assay, Homo sapiens
So I've got a bunch of compounds here, and I need their log10 of IC50 values.
On a log10 scale: recorded IC50, unit nM.

For this compound ( Cc1ccc(CN2CCC=C(CCC(=O)NO)C2=O)cc1 ), measured log10 of IC50 is 3.32

The value of log10 of IC50 measured for the compound O=C(CCC1=CCCN(CCCCc2cccc3ccccc23)C1=O)NO turned out to be 2.04

// log10 of IC50 value for Cc1ccc(S(=O)(=O)Nc2ccc(CN3CCC=C(CCC(=O)NO)C3=O)cc2)cc1 : 2.77

Reported log10 of IC50 of Cc1ccccc1CN1CCC=C(CCC(=O)NO)C1=O : 3.47

Please fill in: log10 of IC50 reported for O=C(CCC1=CCCN(CCc2cccc3ccccc23)C1=O)NO = 2.51

Documented log10 of IC50 of O=C(CCC1=CCCN(CCc2ccc(-c3ccccc3)cc2)C1=O)NO : 2.36

###

# System: HCT-15
# measurement notes: Growth inhibition of human HCT15 cells by SRB assay
# Format: functional
Consider the following compounds; for each one, report its GI50.
Express your answer in µM, writing the number without its unit.

Reported GI50 (HCT-15) for entry O=C(CCC1=CCCN(CCCc2ccc3ccccc3c2)C1=O)NO is 0.53

Let me check: COc1ccc(CN2CCC=C(CCC(=O)NO)C2=O)cc1 , system HCT-15, measured GI50 is 6.89

Value (GI50, HCT-15) for record O=C(CCC1=CCCN(Cc2ccc(Br)cc2)C1=O)NO = 1.72

Here COc1cccc(CN2CCC=C(CCC(=O)NO)C2=O)c1 was tested on HCT-15, and its GI50 came to 9.03

Summary line: O=C(CCC1=CCCN(CCc2cccc3ccccc23)C1=O)NO , HCT-15, reported GI50 = 5.43

The reported GI50 value, HCT-15, for O=C(CCC1=CCCN(CCc2ccc(-c3ccccc3)cc2)C1=O)NO reads 1

Entry O=C(CCC1=CCCN(CCc2ccc3ccccc3c2)C1=O)NO under HCT-15 had GI50 of 1.16

GI50 value, target or system HCT-15, for O=C(CCC1=CCCN(Cc2ccc(F)cc2)C1=O)NO : 9.96

Item O=C(CCC1=CCCN(CCCc2ccc(-c3ccccc3)cc2)C1=O)NO ; assay system HCT-15; GI50 reported as 3.19

Entry O=C(CCC1=CCCN(CCCCc2cccc3ccccc23)C1=O)NO , HCT-15 data, GI50 value: 1.67

I looked up Cc1ccc(CN2CCC=C(CCC(=O)NO)C2=O)cc1 and its GI50 for HCT-15 was 8.51

The compound O=C(CCC1=CCCN(CCCCc2ccc(-c3ccccc3)cc2)C1=O)NO , tested on HCT-15, showed GI50 of 4.56
